The reader will find pIC50 measurements below, all made with Active human KLK7 (SCCE) (Homo sapiens (Human)).
Sequence (P49862 30-253): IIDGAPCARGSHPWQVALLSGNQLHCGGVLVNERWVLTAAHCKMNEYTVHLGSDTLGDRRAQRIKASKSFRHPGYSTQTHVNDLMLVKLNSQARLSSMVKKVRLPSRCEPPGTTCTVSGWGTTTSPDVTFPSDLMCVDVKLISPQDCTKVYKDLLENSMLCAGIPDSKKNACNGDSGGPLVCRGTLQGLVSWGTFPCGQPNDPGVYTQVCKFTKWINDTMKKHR
FYI, pIC50 means -log10 of a concentration in mol per litre.

The cases that follow already have their pIC50 on record.
compound	pIC50
O=C(COC(=O)CCC1CCCC1)Nc1ccccc1	5.95
Cc1cc(NC(=O)COC(=O)C(NC(=O)c2ccccc2)c2ccccc2)no1 (stereo not shown)	5.83
CC(C)C(OC(=O)C(NC(=O)c1ccccc1)c1ccccc1)C(=O)Nc1ccc(F)cc1 (stereo not shown)	5.43
CCC(OC(=O)Cc1ccc(Cl)cc1)C(=O)Nc1ccc(F)cc1 (stereo not shown)	6.85
COc1ccc(CC(=O)OC(C(=O)Nc2cc(C)on2)c2ccccc2)cc1 (stereo not shown)	6.37
COc1ccc(CC(=O)OC(C(=O)Nc2ccc(F)cc2)c2ccccc2)cc1 (stereo not shown)	5.93
Cc1cc(NC(=O)COC(=O)Cc2ccc(Cl)cc2)no1 [Compound 81]	5.30
COc1ccc(NC(=O)COC(=O)C(NC(=O)c2ccccc2)c2ccccc2)cc1 (stereo not shown)	5.91
CCC(OC(=O)Cc1ccc(Cl)cc1)C(=O)Nc1ccc(OC)cc1 (stereo not shown)	6.92
Cc1cc(NC(=O)C(C)OC(=O)Cc2ccc(Cl)cc2)no1 (stereo not shown)	7.41

For COc1ccc(CC(=O)OC(C)C(=O)Nc2ccccc2)cc1 (stereo not shown) the compound record lists pIC50 as 6.59

Reported pIC50 ( CC(C)C(OC(=O)Cc1ccc(Cl)cc1)C(=O)Nc1ccccc1 (stereo not shown) ) = 5.39

Short answer for "COc1ccc(CC(=O)OCC(=O)Nc2ccccc2)cc1" : pIC50 was 5.41
